Assay: Metabolic stability in hepatic microsomes (human)
Assay type: in vitro ADME
Settings: human hepatic microsomes 0.5 mg/ml, compound 1 μM, 37° C., pH 7.4, 30 min
Experimental: The test compound was dissolved in DMSO at the final concentration of 1 μM and pre-incubated for 10 min at 37° C. in potassium phosphate buffer pH 7.4 together with mouse or human hepatic microsomes (Xenotech) at the final concentration of 0.5 mg/ml. […] The percentage of the compound remaining after 30 min incubation period was calculated according the following equation: [area at time 30 min]/[area at time 0 min]*100%.
property: Met. human (percentage of the compound remaining after 30 min incubation) (%)
Please give a number only; it is taken to be in %.

[
  {
    "compound": "O=C(/C=C/c1ccc(/C=C/C(=O)c2ccccc2)cn1)NO [Ref (*) 69, reference compound]",
    "reported.value": 13.74
  }
]

Quick one: give measured Met. human (percentage of the compound remaining after 30 min incubation) for `CN1CCN(Cc2ccccc2C(=O)/C=C/c2ccc(/C=C/C(=O)NO)nc2)CC1` 93.48

Quick one: give measured Met. human (percentage of the compound remaining after 30 min incubation) for `CN(C)C1CCN(c2ccc(C(=O)/C=C/c3ccc(/C=C/C(=O)NO)cc3)cc2)CC1` 41.88

Identify measured Met. human (percentage of the compound remaining after 30 min incubation) corresponding to `CN1CCN(Cc2ccc(C(=O)/C=C/c3ccc(/C=C/C(=O)NO)cc3)cc2)CC1` 61.16

Look up and state reported Met. human (percentage of the compound remaining after 30 min incubation) for `O=C(/C=C/c1ccc(/C=C/C(=O)c2ccc(CN3CCNCC3)cc2)cc1)NO` 50.84

Dear colleague, please send me the reported Met. human (percentage of the compound remaining after 30 min incubation) for COc1cc(C(=O)/C=C/c2ccc(/C=C/C(=O)NO)cc2)ccc1CN1CCOCC1 [Ref (*) 48, reference compound] when you can. 35.28

Look up Met. human (percentage of the compound remaining after 30 min incubation) of `C[C@@H]1CN(c2ccc(C(=O)/C=C/c3ccc(/C=C/C(=O)NO)nc3)cc2)C[C@H](C)N1C` and report it. 44.35

Query Met. human (percentage of the compound remaining after 30 min incubation) for O=C(/C=C/c1ccc(/C=C/C(=O)c2ccc(N3CCOCC3)cc2)cc1)NO [Ref (*) 41, reference compound] 8.66

###

// reported Met. mouse (percentage of the compound remaining after 30 min incubation) per item
Assay: Metabolic stability in hepatic microsomes (mouse)
Assay type: in vitro ADME
Settings: mouse hepatic microsomes 0.5 mg/ml, compound 1 μM, 37° C., pH 7.4, 30 min
All answers are understood in %, so give the number only.

[
  {
    "compound": "O=C(/C=C/c1ccc(/C=C/C(=O)c2ccc(N3CCOCC3)cc2)cc1)NO [Ref (*) 41, reference compound]",
    "unit.descriptor": "%",
    "reported.value": 2.76
  },
  {
    "compound": "O=C(/C=C/c1ccc(/C=C/C(=O)c2ccc(N3CCNCC3)cc2)cn1)NO [Example 45]",
    "unit.descriptor": "%",
    "reported.value": 43.41
  },
  {
    "compound": "CC(=O)N1CCN(c2ccc(C(=O)/C=C/c3ccc(/C=C/C(=O)NO)nc3)cc2)CC1 [Example 42]",
    "unit.descriptor": "%",
    "reported.value": 50.47
  },
  {
    "compound": "COc1cc(C(=O)/C=C/c2ccc(/C=C/C(=O)NO)cc2)ccc1CN1CCOCC1 [Ref (*) 48, reference compound]",
    "unit.descriptor": "%",
    "reported.value": 2.8
  },
  {
    "compound": "CN1CCN(c2cc(Cl)cc(C(=O)/C=C/c3ccc(/C=C/C(=O)NO)cc3)c2)CC1 [Example 25]",
    "unit.descriptor": "%",
    "reported.value": 84.89
  }
]

For the compound O=C(/C=C/c1ccc(/C=C/C(=O)c2ccc(F)c(F)c2)cn1)NO [Ref (*) 72, reference compound] , report Met. mouse (percentage of the compound remaining after 30 min incubation). 10.83

Note Met. mouse (percentage of the compound remaining after 30 min incubation) for the compound shown: O=C(/C=C/c1ccc(/C=C/C(=O)c2ccc(N3CCNCC3)cc2)cc1)NO [Example 15] 30.5

Item O=C(/C=C/c1ccc(/C=C/C(=O)c2ccc(CN3CCNCC3)cc2)cc1)NO [Example 26] : provide Met. mouse (percentage of the compound remaining after 30 min incubation) 42.41

Indicate its recorded Met. mouse (percentage of the compound remaining after 30 min incubation); the compound in question is O=C(/C=C/c1ccc(/C=C/C(=O)c2cccs2)cn1)NO [Ref (*) 71, reference compound] 6.04

For CN1CCC(Cc2ccc(C(=O)/C=C/c3ccc(/C=C/C(=O)NO)nc3)cc2)CC1 [Example 44] , write its Met. mouse (percentage of the compound remaining after 30 min incubation). 54.56
